Target: UniProt P30551
Sequence (P30551 1-444): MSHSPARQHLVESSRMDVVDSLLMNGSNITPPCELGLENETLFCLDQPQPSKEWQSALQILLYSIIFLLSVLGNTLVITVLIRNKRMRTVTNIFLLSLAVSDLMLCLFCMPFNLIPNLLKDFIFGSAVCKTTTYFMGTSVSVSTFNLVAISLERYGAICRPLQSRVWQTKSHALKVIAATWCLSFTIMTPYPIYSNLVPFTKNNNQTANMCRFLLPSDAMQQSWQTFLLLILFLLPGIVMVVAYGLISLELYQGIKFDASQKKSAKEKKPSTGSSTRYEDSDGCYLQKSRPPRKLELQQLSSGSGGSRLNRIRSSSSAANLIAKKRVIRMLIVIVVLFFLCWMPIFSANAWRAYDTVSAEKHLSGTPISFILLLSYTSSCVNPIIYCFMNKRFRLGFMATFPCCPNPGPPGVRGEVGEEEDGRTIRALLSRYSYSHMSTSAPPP
Where a SMILES comes first, the peptide text is derived from it.
recordedEndpoint: IC50 (nM)
Write the answer as a number in nM, unit excluded.

compound | testedOn | IC50 / nM
CSCC[C@@H]1NC(=O)[C@H](Cc2c[nH]c3ccccc23)NC(=O)CNC(=O)[C@@H](NC(=O)[C@H](Cc2ccc(OS(=O)(=O)O)cc2)NC(C)=O)CCCNC(=O)C[C@@H](C(=O)N(C)[C@@H](Cc2ccccc2)C(N)=O)NC1=O (HELM PEPTIDE1{[ac].[O=C([C@H](Cc1ccc(OS(=O)(=O)O)cc1)N[*:1])[*:2]].[Orn].G.W.M.D.[meF].[am]}$PEPTIDE1,PEPTIDE1,3:R3-7:R3$$$V2.0) | UniProt P30551 | 13000
CCCC[C@@H]1NC(=O)[C@H](Cc2c[nH]c3ccccc23)NC(=O)CNC(=O)[C@@H](NC(=O)[C@H](Cc2ccc(OS(=O)(=O)O)cc2)NC(C)=O)CCCCNC(=O)C[C@@H](C(=O)N(C)[C@@H](Cc2ccccc2)C(N)=O)NC1=O (HELM PEPTIDE1{[ac].[O=C([C@H](Cc1ccc(OS(=O)(=O)O)cc1)N[*:1])[*:2]].K.G.W.[Nle].D.[meF].[am]}$PEPTIDE1,PEPTIDE1,3:R3-7:R3$$$V2.0) | UniProt P30551 | 6600
CSCC[C@@H]1NC(=O)[C@H](Cc2c[nH]c3ccccc23)NC(=O)CNC(=O)[C@@H](NC(=O)[C@H](Cc2ccc(OS(=O)(=O)O)cc2)NC(C)=O)CCCCNC(=O)C[C@@H](C(=O)N(C)[C@@H](Cc2ccccc2)C(N)=O)NC1=O [Example 1] (HELM PEPTIDE1{[ac].[O=C([C@H](Cc1ccc(OS(=O)(=O)O)cc1)N[*:1])[*:2]].K.G.W.M.D.[meF].[am]}$PEPTIDE1,PEPTIDE1,3:R3-7:R3$$$V2.0) | UniProt P30551 | 1500

Attention now shifts to the item below.
stdin: # input compound: CSCC[C@@H]1NC(=O)[C@H](Cc2c[nH]c3ccccc23)NC(=O)CNC(=O)[C@@H](NC(=O)[C@H](Cc2ccc(OS(=O)(=O)O)cc2)NC(C)=O)CCCCNC(=O)C[C@@H](C(=O)N[C@@H](Cc2ccccc2)C(N)=O)NC1=O (HELM PEPTIDE1{[ac].[O=C([C@H](Cc1ccc(OS(=O)(=O)O)cc1)N[*:1])[*:2]].K.G.W.M.D.F.[am]}$PEPTIDE1,PEPTIDE1,3:R3-7:R3$$$V2.0) ; wanted: its IC50
stdout: 45
